Numbers sourced from PubChem BioAssay (NCI).

Test system: RXF 393 renal
Assay: NCI tumour cell line growth inhibition, 48 h
measurement_type: TGI

Take a look at these entries with their results.
CC(=O)Nc1ccc(-c2csc(Nc3ccc(-c4csc(-c5ccccc5)n4)cc3)n2)cc1 : > 50 µM
COc1ccc(C2=C(c3cn(C)c4ccccc34)C(=O)NC2=O)cc1 : > 25 µM
CC1CC(c2ccc(Cl)cc2)=Nc2ccccc2S1 (stereo not given) : > 100 µM
Cc1ccc(N(C)S(=O)(=O)c2ccc([N+](=O)[O-])cc2)cc1 : > 100 µM
O=c1c2ccccc2nc(/C=C(\O)c2ccccc2)n1-c1ccccc1Cl : > 100 µM
CC/C(CC(=O)CCC(=O)Nc1c(C)cccc1C)=N\NC(=O)NN : > 100 µM
COc1cc2c3c(n(CCCN=[N+]=[N-])c(=O)c2cc1OC)-c1ccc(C#N)cc1C3=O : 30.2 µM
O=C1Nc2c(Cl)cc(Cl)cc2/C1=N/N=C/c1ccccc1O : 50.7 µM
O=c1c2sc3nc(NCCN4CCCCC4)ncc3c2ncn1-c1ccccc1 : 84.4 µM
CCOC(=O)C(=O)/C=C(\C)Nc1c(NC2OCC(OC(C)=O)C(OC(C)=O)C2OC(C)=O)nc(SC)[nH]c1=O (stereo not given) : > 100 µM

Consider Cc1ccccc1N=Nc1cc(C)c(N=Nc2c(O)ccc3ccccc23)cc1C . Its measured TGI is > 100 µM

Consider O=C1CCCn2c(nc3ccccc32)N1 . Its measured TGI is > 100 µM

Consider CC1(C)CC(=O)C(Cc2ccccc2)(Cc2ccccc2)C(=O)C1 . Its measured TGI is > 100 µM

Consider Nc1nc[n+](Cc2ccccc2CCO)c2nc[nH]c12 . Its measured TGI is > 100 µM

----------
Test system: PC-3 prostate
Assay: NCI tumour cell line growth inhibition, 48 h
measurement_type: TGI

Cc1cc(OCc2n[nH]c(=S)n2/N=C/c2ccc(F)cc2)ccc1Cl : > 100 µM
CCOC(=O)c1ccc2c(c1)c1c(C)c3ccncc3c(C)c1n2C : 2.15 µM
CCCCCC(/C=N/Nc1ccccc1)C(O)(C(F)(F)F)C(F)(F)F (stereo not drawn) : > 100 µM
Cn1cc(C2=C(Sc3ccccc3)C(=O)NC2=O)c2ccccc21 : > 25 µM
C=C(C)[C@@H]1CC[C@]2(CNCCO)CC[C@]3(C)[C@H](CC[C@@H]4[C@@]5(C)CCC(N)[C@@](C)(CO)[C@@H]5CC[C@]43C)[C@@H]12 (stereo partly drawn) : 3.62 µM
C=C(C)[C@@H]1CC[C@]2(COC(C)=O)CC[C@]3(C)[C@H](CC[C@@H]4[C@@]5(C)CC[C@H](OC(C)=O)C(C)(C)[C@@H]5CC[C@]43C)[C@@H]12 : > 50 µM
O=C(C(=NC12CC3CC(CC(C3)C1)C2)NNc1ccc([N+](=O)[O-])cc1[N+](=O)[O-])C(Br)C(=O)c1ccccc1 (stereo not drawn) : 9.87 µM

Moving on to the next molecule.
Consider COc1ccc(C(OCC2OC(n3cnc4c(=O)n(Cc5ccccc5[N+](=O)[O-])nnc43)C(O)C2O)(c2ccccc2)c2ccc(OC)cc2)cc1 (stereo not drawn) . Its measured TGI is > 100 µM

----------
Property: TGI; scope: individual molecules
System: UACC-257 melanoma
Test: NCI tumour cell line growth inhibition, 48 h

Take a look at these entries with their results.
O=c1[nH]c2cc(C(F)(F)F)ccc2nc1CBr : 28.7 µM
Cc1cc(OCc2n[nH]c(=S)n2/N=C/c2ccc(F)cc2)ccc1Cl : 62 µM

Consider CN(C)c1ccc(-c2[nH]c(=O)c3ccccc3[n+]2C)cc1 . Its measured TGI is > 100 µM

Consider Nc1nc(N)nc(-c2ccccc2NS(=O)(=O)c2ccc([N+](=O)[O-])cc2)n1 . Its measured TGI is > 100 µM

Consider Cn1c(=O)c2ccccc2c2nc3ccccc3nc21 . Its measured TGI is > 100 µM

Consider CON(C)C(=O)CCCO . Its measured TGI is > 100 µM

Consider CC1=C(C(=O)CC(=O)C(=O)Nc2cccc(Cl)c2C)Sc2ccccc2N1 . Its measured TGI is > 100 µM

----------
Test system: RPMI-8226 leukemia
Assay: NCI tumour cell line growth inhibition, 48 h
measurement_type: TGI

Take a look at these entries with their results.
CC(C)(C)c1ccc(O)c(C[N+](C)(C)C)c1 : > 100 µM
COC1C(CO)OC(n2c3ccccc3c3c4c(c5c6ccccc6[nH]c5c32)C(=O)NC4=O)C(OC(=O)C(N)CCCCN)C1O (centres undefined) : 11.6 µM
Cc1cc2c(c(C(N)=O)c1C)-c1cccc(Cl)c1C2=O : > 100 µM
CC(C)(C)N=Cc1ccccc1[O-].CC(C)(C)N=Cc1ccccc1[O-].[Co+2] : > 100 µM

Consider C=CCN(C(=O)OC(C)(C)C)C1=CC2C(C)=CN(S(=O)(=O)c3ccccc3)C2C(OCc2ccccc2)=C1 (centres undefined) . Its measured TGI is > 100 µM

Consider COC(=O)NC(Nc1ccc(Cl)cc1Cl)(C(F)(F)F)C(F)(F)F . Its measured TGI is > 100 µM

Consider CC(NC(=O)C(CC(=O)OCc1ccccc1)NC(=O)OCc1ccccc1)c1ccccc1 (centres undefined) . Its measured TGI is > 100 µM

Consider CCN1CCN(c2cc(C)nc(N(CCCNc3ccnc4cc(Cl)ccc34)Cc3cccs3)n2)CC1 . Its measured TGI is 4.82 µM

Consider COc1cc(-n2cncc2-c2ccc3ccccc3c2)cc(OC)c1OC . Its measured TGI is > 100 µM

----------
System: SNB-78 CNS
Experiment: NCI tumour cell line growth inhibition, 48 h
Property: TGI; scope: individual compounds

Take a look at these entries with their results.
Cc1ccnc(NS(=O)(=O)c2ccc(NC3=CC(=O)C(=O)c4ccccc43)cc2)n1 : > 100 µM
O=c1c(O)c(O)c1=O.[NH2-].[NH2-].[NH2-].[NH2-].[NH2-].[Ru+5] : > 100 µM
CCCCC1=C(Br)C(=C(Br)Br)OC1=O : 37 µM

Consider Cc1ccc(S(=O)(=O)O/N=C2\CCC\C2=C/c2ccccc2)cc1 . Its measured TGI is 13 µM

Consider Cc1ncc(CCl)c2c1OC(C)(C)OC2 . Its measured TGI is > 100 µM

Consider O=C1c2cccc3cc4ccccc4c(c23)C(=O)N1CCNCCNCCNCCN1C(=O)c2cccc3cc4ccccc4c(c23)C1=O . Its measured TGI is 0.385 µM

Consider COc1cccc2c1C(=O)c1c(O)c3c(c(O)c1C2=O)C[C@@](O)(C(=O)CO)C[C@@H]3OC1CC(N)C(O)C(C)O1 (stereo partly drawn) . Its measured TGI is 8.73 µM

Consider CN1CC[C@]2(C)c3c(O)cccc3CC3CCCC1C32C (stereo partly drawn) . Its measured TGI is > 100 µM

----------
Property: TGI; scope: individual compounds
Tested on: SNB-19 CNS
Assay: NCI tumour cell line growth inhibition, 48 h

Take a look at these entries with their results.
COc1cc2c3c(n(CCCN=[N+]=[N-])c(=O)c2cc1OC)-c1ccc(C#N)cc1C3=O : > 100 µM
COc1cc2c[n+]3ccc4cc(OC)c(OC)cc4c3cc2cc1O : > 100 µM
O=C1NC(=O)C(C(=O)C(=O)Nc2cccc(C(F)(F)F)c2)C(=O)N1 : > 100 µM
COc1ccc(C2=C(c3cn(C)c4ccccc34)C(=O)NC2=O)cc1 : > 25 µM
CCOc1cc(NC(C)=O)ccc1C(=O)NN1C(=O)/C(=C/c2ccco2)N=C1c1ccccc1 : > 100 µM
CCOC(=O)N1C=NC23C(c4ccccc4)C(c4ccccc4)C12C(=O)N(C)C(=O)N3C (stereo unspecified) : > 100 µM
NC(CSC(=O)c1ccccc1)C(=O)O (stereo unspecified) : > 100 µM
O=[N+]([O-])c1ccc(N=Nc2c(O)ccc3cc(S(=O)(=O)O)cc(S(=O)(=O)O)c23)cc1 : > 100 µM

The value of TGI recorded for CC1CC(c2ccc(Cl)cc2)=Nc2ccccc2S1 (stereo unspecified) when tested on SNB-19 CNS reads > 100 µM

The value of TGI recorded for Cc1cc2c(c(C(N)=O)c1C)-c1cccc(Cl)c1C2=O when tested on SNB-19 CNS reads > 100 µM

The value of TGI recorded for Cc1ccc(S(=O)(=O)N/N=C(/CC(=O)c2c(C)n([O-])c3ccccc3[n+]2=O)C(=O)Nc2ccc(C)c(C)c2)cc1 when tested on SNB-19 CNS reads > 100 µM

The value of TGI recorded for Nc1nc(N)nc(-c2ccccc2NS(=O)(=O)c2ccc([N+](=O)[O-])cc2)n1 when tested on SNB-19 CNS reads > 100 µM

The value of TGI recorded for C/C(=N\NC(=S)NCCNC(=S)N/N=C(\C)c1ccccn1)c1ccccn1 when tested on SNB-19 CNS reads > 100 µM

The value of TGI recorded for Cc1cc(OCc2n[nH]c(=S)n2/N=C/c2ccc(F)cc2)ccc1Cl when tested on SNB-19 CNS reads 83.8 µM

The value of TGI recorded for O=C1C=CC(=O)c2c1c1c(c3c2C2c4ccccc4C3c3ccccc32)C2c3ccccc3C1c1ccccc12 when tested on SNB-19 CNS reads 34.4 µM

The value of TGI recorded for CC/C(CC(=O)CCC(=O)Nc1c(C)cccc1C)=N\NC(=O)NN when tested on SNB-19 CNS reads > 100 µM

The value of TGI recorded for CCC[CH2][Sn]([CH2]CCC)([O]C(=O)Cc1ccc(F)cc1)[O]C(=O)Cc1ccc(F)cc1 when tested on SNB-19 CNS reads 2.65 µM

The value of TGI recorded for Cc1cc(S(=O)(=O)Nc2nc(N)nc(N(C)C)n2)c(S)cc1Cl when tested on SNB-19 CNS reads > 10 µM

The value of TGI recorded for CCOC(=O)C=C1CCC2(CC1)OCCO2 when tested on SNB-19 CNS reads > 100 µM

The value of TGI recorded for O=C1CCCn2c(nc3ccccc32)N1 when tested on SNB-19 CNS reads > 100 µM

The value of TGI recorded for COc1cc(/C=N/N=C(\N)NO)cc(Cl)c1O when tested on SNB-19 CNS reads > 100 µM
